B1: Myc-tagged full-length Gab1 (wild type) [mouse] / GST-PTP1B-D181A (substrate-trapping mutant of PTP1B, GST fusion protein) [mouse] (parent)
chain 1: MSGGEVVCSGWLRKSPPEKKLKRYAWKRRWFVLRSGRLTGDPDVLEYYKNDHAKKPIRIIDLNLCQQVDAGLTFNKKEFENSYIFDINTIDRIFYLVADSEEDMNKWVRCICDICGFNPTEEDPVKPLTGSSQAPVDSPFAISTAPASSQMEASSVALPPPYQVISLPPHPDTLGLQDDPQDYLLLINCQSKKPEPNRTLFDSAKPTFSETDCNDNVPSHQTPASSQSKHGMNGFFQQQMMYDCPPSRLTSVSGESSLYNLPRSYSHDVLPKESPSSTEADGELYTFNTPSGTAGVETQMRHVSISYDIPPTPGNTYQIPRTFPESTLGQSSKLDTIPDIPPPRPPKPHPTHDRSPVETCGVPRTASDTDSSYCIPPPAGMTPSRSNTISTVDLNKLRKDASSQDCYDIPRTFPSDRSSSLEGFHSQYKIKSVLTAGGVSGEELDENYVPMNPNSPPRQHSGSFTEPIQEPNYVPMTPGTFDFSSFGMQVPPPAHMGFRSSPKTPPRRPVPVADCEPPPVDRNLKPDRKVKPAPLDIKPLSEWEELQAPVRSPITRSFARDSSRFPMSPRPDSVHSTTSSSDSHDSEENYVPMNPNLSGEDPNLFASNSLDGGSSPMNKPKGDKQVEYLDLDLDSGKSTPPRKQKSSGSGSSMADERVDYVVVDQQKTLALKSTREAWTDGRQSTESETPTKNVK
chain 2: MEMEKEFEEIDKAGNWAAIYQDIRHEASDFPCKVAKLPKNKNRNRYRDVSPFDHSRIKLHQEDNDYINASLIKMEEAQRSYILTQGPLPNTCGHFWEMVWEQKSRGVVMLNRIMEKGSLKCAQYWPQQEEKEMVFDDTGLKLTLISEDVKSYYTVRQLELENLTTKETREILHFHYTTWPAFGVPESPASFLNFLFKVRESGSLSLEHGPIVVHCSAGIGRSGTFCLADTCLLLMDKRKDPSSVDIKKVLLEMRRFRMGLIQTADQLRFSYLAVIEGAKFIMGDSSVQDQWKELSREDLDLPPEHVPPPPRPPKRTLEPHNGKCKELFSSHQWVSEETCGDEDSLAREEGRAQSSAMHSVSSMSPDTEVRRRMVGGGLQSAQASVPTEEELSSTEEEHKAHWPSHWKPFLVNVCMATLLATGAYLCYRVCFH

- Variants of: B1
- method-notes: GST pull-down, anti-Myc immunoblot densitometry
- condition-label: with GST-PTP1B-D181A (substrate-trapping mutant of PTP1B, GST fusion protein) [mouse]; Gab1 expressed in HEK-293 T cells, pervanadate treatment; normalized to lysate loading control; parent: 100; read off a plot
property: percent of parent
Mention the unit after the number when you answer.

{"columns": ["mutation-notation", "reported-measurement"],
 "data": [
  ["chain 1 Y473F", "270%"],
  ["chain 1 Y660F", "150%"],
  ["chain 1 Y373F", "200%"],
  ["chain 1 Y448F", "170%"]
]}

Query string: Find the recorded percent of parent belonging to chain 1 Y285F and report it.
Result string: 180%

Query string: Find the recorded percent of parent belonging to chain 1 Y407F and report it.
Result string: 160%

Query string: Find the recorded percent of parent belonging to chain 1 Y628F and report it.
Result string: 240%

Query string: Find the recorded percent of parent belonging to chain 1 Y590F and report it.
Result string: 310%

The reported measurements were obtained from paper PMC3637500.
